melting point values, listed per item

The examples below pair each entry with its known result.
# Compound, Observed value
records = [
    ("COC(=O)NC1(COc2ccc(-c3ccc4nc(C)c(-c5cnc(N)c(C(F)(F)F)c5)n4n3)cc2)COC1 [Example 115]", "202 to 204 °C"),
    ("Cc1nc2ccc(-c3ccc(OCC4(NC(=O)C5CC5)COC4)cc3)nn2c1-c1cnc(N)c(C(F)(F)F)c1 [Example 110]", "191 to 193 °C"),
    ("Cc1nc2ccc(-c3ccc(OCC4(N)COC4)cc3)nn2c1-c1cnc(N)c(C(F)(F)F)c1 [Example 111]", "198 to 200 °C"),
]

Proceeding to the next compound to report its melting point.
Query :: Endpoint output: melting point of Cc1nc2ccc(-c3ccc(OCC4(NC(=O)C(F)(F)F)COC4)cc3)nn2c1-c1cnc(N)c(C(F)(F)F)c1 [Example 116] . Value?
Result :: 214 to 216 °C

###

# Target of assay: PI3K beta (Homo sapiens, UniProt P42338)
# Construct: for the full-length p110-b subunit are generated and fused by overlapping PCR; p85(iSH2) fusion partner (same polypeptide; see partner chain) (N); Gly linker (N); His tag (C); Tn5 (Trichoplusia ni) or TiniPro insect cells
# Sequence (P42338 with tags, fused parts or gaps limits assumed): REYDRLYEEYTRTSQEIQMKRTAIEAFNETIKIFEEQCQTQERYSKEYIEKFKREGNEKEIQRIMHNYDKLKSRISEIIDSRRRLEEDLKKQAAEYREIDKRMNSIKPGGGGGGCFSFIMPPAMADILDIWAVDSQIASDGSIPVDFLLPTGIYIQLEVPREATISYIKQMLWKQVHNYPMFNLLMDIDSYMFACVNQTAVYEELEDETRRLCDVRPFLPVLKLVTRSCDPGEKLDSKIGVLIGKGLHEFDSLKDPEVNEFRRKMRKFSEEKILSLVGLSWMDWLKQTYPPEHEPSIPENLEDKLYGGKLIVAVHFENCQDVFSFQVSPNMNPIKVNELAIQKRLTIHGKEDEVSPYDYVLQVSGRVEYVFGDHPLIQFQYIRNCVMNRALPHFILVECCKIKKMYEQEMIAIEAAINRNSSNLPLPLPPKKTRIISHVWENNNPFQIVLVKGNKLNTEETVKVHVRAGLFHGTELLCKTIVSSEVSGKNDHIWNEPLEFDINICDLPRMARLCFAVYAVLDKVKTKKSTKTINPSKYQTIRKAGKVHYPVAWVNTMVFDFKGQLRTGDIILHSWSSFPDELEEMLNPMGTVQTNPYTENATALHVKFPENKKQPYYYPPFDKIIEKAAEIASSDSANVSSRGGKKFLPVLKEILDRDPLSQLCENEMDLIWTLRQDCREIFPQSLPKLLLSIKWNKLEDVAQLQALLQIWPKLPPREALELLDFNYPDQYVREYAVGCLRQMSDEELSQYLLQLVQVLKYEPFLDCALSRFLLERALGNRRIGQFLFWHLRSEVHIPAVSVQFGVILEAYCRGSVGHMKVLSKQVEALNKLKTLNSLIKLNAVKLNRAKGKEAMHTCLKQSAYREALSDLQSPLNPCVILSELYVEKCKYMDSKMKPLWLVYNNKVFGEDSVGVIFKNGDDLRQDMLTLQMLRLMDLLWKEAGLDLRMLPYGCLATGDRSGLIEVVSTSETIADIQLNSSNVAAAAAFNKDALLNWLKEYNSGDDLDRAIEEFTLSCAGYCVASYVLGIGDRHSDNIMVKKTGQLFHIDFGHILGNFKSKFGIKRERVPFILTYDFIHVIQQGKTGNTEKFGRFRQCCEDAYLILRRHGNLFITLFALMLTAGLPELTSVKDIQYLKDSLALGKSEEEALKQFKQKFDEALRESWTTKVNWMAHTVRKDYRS
# Assay method text: PI3K beta enzymatic assay (Kinase-Glo luminescence)
# Run parameters: Enzymatic Data
Measured parameter: pIC50
As a rule, pIC50 stands for the negative log10 of the concentration, concentration in M.

Recorded results for 2 compounds are shown here.
# Compound, Observed value
records = [
    ("COc1ccc(-c2ccc3nc(C)c(-c4ccc(C#N)nc4)n3n2)cc1OC [Example 4]", 5.92),
    ("COc1ccc(-c2ccc3nc(C)c(-c4ccc(N5CCOCC5)nc4)n3n2)cc1OC [Example 5]", 5.80),
]

Consider the additional compound presented here.
Query :: Look up pIC50: Cc1nc2ccc(-c3ccc(OCC4(NC(=O)C(C)C)COC4)cc3)nn2c1-c1cnc(N)c(C(F)(F)F)c1 [Example 114]
Result :: 5.06

###

# Target of assay: PI3K alfa (Homo sapiens, UniProt P42336)
# Construct: p85(iSH2) fusion partner (same polypeptide; see partner chain) (N); 12x Gly linker (N); His tag (C); Tn5 (Trichoplusia ni) or TiniPro insect cells
# Sequence (P42336 with tags, fused parts or gaps limits assumed): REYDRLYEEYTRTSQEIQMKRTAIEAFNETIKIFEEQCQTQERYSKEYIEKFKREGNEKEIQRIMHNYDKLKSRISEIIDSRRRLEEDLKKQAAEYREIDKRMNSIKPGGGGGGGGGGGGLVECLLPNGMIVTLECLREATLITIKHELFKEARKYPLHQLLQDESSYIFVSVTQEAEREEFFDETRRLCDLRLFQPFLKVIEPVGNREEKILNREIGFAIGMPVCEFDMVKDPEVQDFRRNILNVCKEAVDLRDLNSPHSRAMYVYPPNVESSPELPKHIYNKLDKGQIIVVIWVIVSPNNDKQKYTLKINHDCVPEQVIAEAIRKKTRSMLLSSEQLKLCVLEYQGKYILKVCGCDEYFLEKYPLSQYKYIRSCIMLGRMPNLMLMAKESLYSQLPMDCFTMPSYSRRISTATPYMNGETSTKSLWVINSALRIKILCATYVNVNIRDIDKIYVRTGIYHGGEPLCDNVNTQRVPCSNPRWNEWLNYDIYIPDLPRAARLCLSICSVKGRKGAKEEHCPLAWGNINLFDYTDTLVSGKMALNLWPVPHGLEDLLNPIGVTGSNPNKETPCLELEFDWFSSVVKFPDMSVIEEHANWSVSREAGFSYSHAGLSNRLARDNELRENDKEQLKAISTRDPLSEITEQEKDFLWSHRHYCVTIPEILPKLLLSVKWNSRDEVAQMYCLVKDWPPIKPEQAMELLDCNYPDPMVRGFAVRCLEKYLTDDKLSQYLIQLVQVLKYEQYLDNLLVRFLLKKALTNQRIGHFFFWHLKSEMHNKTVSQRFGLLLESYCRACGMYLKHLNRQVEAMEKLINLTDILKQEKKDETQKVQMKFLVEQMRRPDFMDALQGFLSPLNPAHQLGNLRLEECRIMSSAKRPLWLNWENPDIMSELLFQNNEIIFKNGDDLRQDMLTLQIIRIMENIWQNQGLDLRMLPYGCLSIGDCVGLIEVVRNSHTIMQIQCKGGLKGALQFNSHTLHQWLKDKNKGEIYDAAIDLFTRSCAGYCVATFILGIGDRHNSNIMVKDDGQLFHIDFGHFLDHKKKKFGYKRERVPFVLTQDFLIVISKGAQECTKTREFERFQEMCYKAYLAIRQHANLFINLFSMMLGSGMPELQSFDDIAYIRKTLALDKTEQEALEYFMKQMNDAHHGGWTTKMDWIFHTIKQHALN
# Assay method text: PI3K alfa enzymatic assay (Kinase-Glo luminescence)
# Run parameters: Enzymatic Data
# Protocol: In a more preferred assay, the kinase reaction is performed in a final volume of 10 μL per well of a low volume non binding CORNING, 384 well black plate (Cat. No. #3676). The final concentrations of ATP and phosphatidyl inositol (PI) in the assay are 1 μM and 10 μg/mL respectively. […] IC50 is determined by a four parameter curve fitting routine that comes aloneg with “excel fit”. […] Alternatively, IC50 values are calculated using idbsXLfit model 204, which is a 4 parameter logistic model.
Measured parameter: pIC50
Entry type: numeric. Quantity: pIC50, the -log10 of concentration in molar units.

Recorded results for 3 compounds are shown here.
# Smiles entry, Measured parameter, Observed value
data = [
    ("COc1ccc(S(=O)(=O)n2ccc(-c3c(C)nc4ccc(-c5ccc(OC)c(OC)c5)nn34)n2)cc1", "pIC50", 6.11),
    ("COc1cc(-c2ccc3nc(C)c(-c4cnc(N)c(C(F)(F)F)c4)n3n2)ccc1OCCNC(=O)c1ccc(OC)c(OC)c1OC", "pIC50", 6.61),
    ("CCS(=O)(=O)c1ccc(-c2c(C)nc3ccc(-c4ccc(OCCOCCOCCOC)c(OC)c4)nn23)cc1", "pIC50", 5.39),
]

Query :: pIC50 lookup needed for COc1ccc(-c2ccc3nc(C)c(-c4ccn(S(=O)(=O)c5ccc(C#N)cc5)n4)n3n2)cc1OC , thanks.
Result :: 6.39

###

# Target of assay: PI3K beta (Homo sapiens)
# Construct: for the full-length p110-b subunit are generated and fused by overlapping PCR; p85(iSH2) fusion partner (same polypeptide; see partner chain) (N); Gly linker (N); His tag (C); Tn5 (Trichoplusia ni) or TiniPro insect cells
# Assay method text: PI3K beta enzymatic assay (Kinase-Glo luminescence)
# Run parameters: Enzymatic Data
Parameter pIC50: see the listing below.
When answering, recall that pIC50 equals minus log10 of the concentration in mol/L, and write that number alone.

Here is how some molecules turned out for pIC50.
# Smiles entry, pIC50
rows = [
    ("COc1ccc(-c2ccc3nc(C)c(-c4ccc(F)nc4)n3n2)cc1OC", 5.77),
    ("COc1cc(-c2ccc3nc(C)c(-c4cnc(N)c(C(F)(F)F)c4)n3n2)ccc1OCCN(CC(=O)N(C)C)CC(=O)N(C)C", 5.74),
    ("COc1ccc(-c2ccc3nc(C)c(-c4ccc(N)nc4)n3n2)cc1OC", 6.01),
]

Query :: Form field - read-out: pIC50; system: PI3K beta (Homo sapiens); submitted item: Cc1nc2ccc(-c3ccc(OCCCN4CCCC4=O)cc3)nn2c1-c1cnc(N)c(C(F)(F)F)c1
Result :: 5.20

Query :: Param item: CCOc1ccc(-c2ccc3nc(C)c(-c4ccc(N5CCOCC5)nc4)n3n2)cc1OC
Result :: 5.29

###

# Target of assay: PI3K beta (Homo sapiens)
# Construct: for the full-length p110-b subunit are generated and fused by overlapping PCR; p85(iSH2) fusion partner (same polypeptide; see partner chain) (N); Gly linker (N); His tag (C); Tn5 (Trichoplusia ni) or TiniPro insect cells
# Assay method text: PI3K beta enzymatic assay (Kinase-Glo luminescence)
# Run parameters: Enzymatic Data
The reader will find reported pIC50 values listed item by item below.
Value format note: pIC50 is -log10 of concentration (mol/L); just state the number.

# Compound, pIC50
measured = [
    ("Cc1nc2ccc(-c3ccc4c(c3)OCO4)nn2c1-c1cnc(N)c(C(F)(F)F)c1 [Example 108]", 5.15),
]

Query :: Field request: pIC50 | item: Cc1nc2ccc(-c3ccc(S(C)(=O)=O)cc3)nn2c1-c1cncc(C#N)c1 [Example 19]
Result :: 4.91

###

# Target of assay: PI3K beta (Homo sapiens, UniProt P42338)
# Construct: for the full-length p110-b subunit are generated and fused by overlapping PCR; p85(iSH2) fusion partner (same polypeptide; see partner chain) (N); Gly linker (N); His tag (C); Tn5 (Trichoplusia ni) or TiniPro insect cells
# Assay method text: PI3K beta enzymatic assay (Kinase-Glo luminescence)
# Run parameters: Enzymatic Data
Property: pIC50; scope: individual molecules
pIC50 is defined as minus the log10 of a concentration measured in mol/L.

# Smiles entry, pIC50
rows = [
    ("COc1ccc(-c2ccc3nc(C)c(-c4ccc(O)nc4)n3n2)cc1OC", 5.93),
]

Query :: Field request: pIC50 | item: Cc1nc2ccc(-c3ccc(OCC4(N)COC4)cc3)nn2c1-c1cnc(N)c(C(F)(F)F)c1
Result :: 5.62

Query :: And for COc1ccc(-c2ccc(-c3ccc4nc(C)c(-c5ccc(N6CCOCC6)nc5)n4n3)cc2)cc1 ?
Result :: 5.29

###

Entries with reported IC50 on PI3K gamma (Homo sapiens)
Sequence (P48736 144-1102 limits assumed): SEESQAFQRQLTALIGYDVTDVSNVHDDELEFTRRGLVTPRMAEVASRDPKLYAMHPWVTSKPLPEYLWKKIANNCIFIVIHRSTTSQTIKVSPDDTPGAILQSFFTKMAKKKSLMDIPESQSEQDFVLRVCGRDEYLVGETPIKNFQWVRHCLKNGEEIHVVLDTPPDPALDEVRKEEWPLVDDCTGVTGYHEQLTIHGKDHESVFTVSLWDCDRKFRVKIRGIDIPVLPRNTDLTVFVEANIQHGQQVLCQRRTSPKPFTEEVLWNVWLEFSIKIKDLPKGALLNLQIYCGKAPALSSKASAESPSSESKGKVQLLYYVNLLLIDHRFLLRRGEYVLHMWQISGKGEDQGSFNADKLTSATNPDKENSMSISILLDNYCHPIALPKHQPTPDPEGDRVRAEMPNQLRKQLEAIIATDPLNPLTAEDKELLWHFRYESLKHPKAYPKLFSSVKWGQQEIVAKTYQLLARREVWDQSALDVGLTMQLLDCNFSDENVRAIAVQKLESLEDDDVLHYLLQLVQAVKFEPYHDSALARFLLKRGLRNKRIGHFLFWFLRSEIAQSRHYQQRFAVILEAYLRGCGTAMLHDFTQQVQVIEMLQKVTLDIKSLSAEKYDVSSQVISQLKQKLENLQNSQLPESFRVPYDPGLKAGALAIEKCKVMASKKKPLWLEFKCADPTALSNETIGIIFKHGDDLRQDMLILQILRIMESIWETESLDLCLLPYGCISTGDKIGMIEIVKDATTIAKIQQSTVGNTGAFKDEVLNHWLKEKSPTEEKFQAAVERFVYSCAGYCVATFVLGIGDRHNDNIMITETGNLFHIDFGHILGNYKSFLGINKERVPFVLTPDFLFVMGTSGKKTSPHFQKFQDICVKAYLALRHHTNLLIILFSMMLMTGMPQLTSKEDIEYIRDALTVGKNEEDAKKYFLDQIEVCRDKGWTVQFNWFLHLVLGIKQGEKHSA
Enter your answer as a number in µM; do not include the unit.

Please review the entries below; each comes with its answer.
# Compound, Unit abbrev, IC50
records = [
    ("Cc1nc2ccc(-c3ccc(OCC4(NC(=O)C(F)(F)F)COC4)cc3)nn2c1-c1cnc(N)c(C(F)(F)F)c1 [Example 116]", "µM", 4.67),
    ("COc1cc(-c2ccc3nc(C)c(-c4cnc(N)c(C(F)(F)F)c4)n3n2)ccc1OCCNC(=O)c1ccc(OC)c(OC)c1OC [Example 95]", "µM", 4.74),
    ("COc1cc(-c2ccc3nc(C)c(-c4cnc(N)c(C(F)(F)F)c4)n3n2)ccc1OCCNC(=O)c1ccncc1 [Example 29]", "µM", 2.74),
    ("COc1ccc(-c2ccc3nc(C)c(-c4cnc(N)c(C(F)(F)F)c4)n3n2)cc1OC [Example 15]", "µM", 0.157),
    ("Cc1nc2ccc(-c3ccc(OCCCN4CCCC4=O)cc3)nn2c1-c1ccc(S(C)(=O)=O)cc1 [Example 106]", "µM", 1.05),
]

Query :: Reported IC50 for COCCOCCOCCOc1ccc(-c2ccc3nc(C)c(-c4cnc(N)c(C(F)(F)F)c4)n3n2)cc1OC [Example 84] : what is it?
Result :: 0.065

Query :: Next entry: COc1ccc(-c2ccc3nc(C)c(-c4cnc(N)c(C(F)(F)F)c4)n3n2)cc1OCCCNC(=O)c1ccncc1 [Example 97]
Result :: 1.33

Query :: COc1cccc(NC(=O)NCCCOc2cc(-c3ccc4nc(C)c(-c5cnc(N)c(C(F)(F)F)c5)n4n3)ccc2OC)c1 [Example 89] ?
Result :: 6.86

###

# Target of assay: PI3K alfa (Homo sapiens)
# Construct: p85(iSH2) fusion partner (same polypeptide; see partner chain) (N); 12x Gly linker (N); His tag (C); Tn5 (Trichoplusia ni) or TiniPro insect cells
# Assay method text: PI3K alfa enzymatic assay (Kinase-Glo luminescence)
# Run parameters: Enzymatic Data
Measured parameter: pIC50
Recall that pIC50 is obtained by taking minus log10 of the concentration measured in molar.

# Smiles entry, Observed value
measured = [
    ("COc1cccc(C(=O)NCCOc2ccc(-c3ccc4nc(C)c(-c5cnc(N)c(C(F)(F)F)c5)n4n3)cc2OC)c1", 6.43),
]

Query :: Need pIC50, item Cc1nc2ccc(-c3ccc(OCC4(NC(=O)C(C)C)COC4)cc3)nn2c1-c1cnc(N)c(C(F)(F)F)c1
Result :: 7.31

Query :: Next: COc1cc(-c2ccc3nc(C)c(-c4cnc(N)c(C(F)(F)F)c4)n3n2)ccc1OCCNC(=O)Nc1cc(OC)c(OC)c(OC)c1
Result :: 6.62

Query :: Can you check COc1ccc(C(=O)NCCOc2ccc(-c3ccc4nc(C)c(-c5cnc(N)c(C(F)(F)F)c5)n4n3)cc2OC)cc1OC next?
Result :: 6.63

Query :: Another compound to check: Cc1nc2ccc(-c3ccc(OCCCN4CCCC4=O)cc3)nn2c1-c1cnc(N)c(C(F)(F)F)c1
Result :: 7.08

Query :: Moving on to Cc1nc2ccc(-c3ccc(OCC4(NC(=O)C(F)(F)F)COC4)cc3)nn2c1-c1cnc(N)c(C(F)(F)F)c1
Result :: 7.23

Query :: Would you kindly repeat that for COCCOCCOCCOc1ccc(-c2ccc3nc(C)c(-c4ccc(S(C)(=O)=O)cc4)n3n2)cc1OC ?
Result :: 5.63
